Biological target: T1, Inducible T cell Kinase (ITK), endogenous in Jurkat T cells (human, UniProt Q08881 1-620)
T1 construct: Endogenous intracellular ITK from Jurkat T cell lysates; The tie rests on Jurkat being a human T cell line
T1 sequence: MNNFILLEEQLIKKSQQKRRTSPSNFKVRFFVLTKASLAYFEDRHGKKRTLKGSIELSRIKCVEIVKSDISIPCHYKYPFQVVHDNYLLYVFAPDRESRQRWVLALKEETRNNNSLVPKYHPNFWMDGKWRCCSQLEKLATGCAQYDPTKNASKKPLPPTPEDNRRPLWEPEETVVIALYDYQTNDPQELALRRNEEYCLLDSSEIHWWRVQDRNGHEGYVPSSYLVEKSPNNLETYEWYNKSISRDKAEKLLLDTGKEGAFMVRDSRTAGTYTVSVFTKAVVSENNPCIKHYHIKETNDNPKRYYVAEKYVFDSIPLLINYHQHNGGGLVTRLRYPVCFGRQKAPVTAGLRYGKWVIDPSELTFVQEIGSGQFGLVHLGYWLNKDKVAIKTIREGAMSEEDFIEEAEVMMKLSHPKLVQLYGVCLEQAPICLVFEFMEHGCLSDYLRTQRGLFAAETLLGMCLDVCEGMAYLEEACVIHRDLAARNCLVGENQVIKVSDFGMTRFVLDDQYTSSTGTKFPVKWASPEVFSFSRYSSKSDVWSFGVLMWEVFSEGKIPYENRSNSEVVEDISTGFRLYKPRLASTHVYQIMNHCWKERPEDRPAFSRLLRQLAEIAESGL
Assay: competition in cells: co-IP of ITK with SLP76 from stimulated Jurkat cells against peptide concentration (association index, average of three experiments)
Description: FIG. 1. Inducible Association between ITK and SLP76: Jurkat T cells were stimulated through their TCR for various periods of time and then lysed. Lysates were treated with antibody to SLP-76 (IP: anti-SLP76) and the immune complexes were resolved by gel electrophoresis. […] FIG. 4. […] This index was calculated by correcting the ITK signals for the total of SLP 76 signal in each lane and then calculating the ratio over the non-stimulated control. […]
pIC50: −log10 of the molar value.
MEASURED QUANTITY: pIC50

QUERY: Looking for the measured pIC50 of RRRRRRRRRQQPPVPPQRPMA (Synthetic cell-penetrating peptide; It was loaded into Jurkat cells or mouse splenocytes, or injected intraperitoneally into mice; A fluorescein-labelled version was used only for uptake studies, which are not recorded; also called Arg-SLP76 conjugate peptide; polyArg-SLP76 peptide conjugate) [R9-QQP, arginine-SLP76 peptide conjugate RRRRRRRRRQQPPVPPQRPMA] , can you help?
RESULT: ~6.00

Reference source: patent US20100287636A1
